Numbers sourced from the supplement of paper PMC9732359.

Assay: protein stability index of a GFP-peptide fusion (yeast GPS) (PSI 1-4); higher = more stable; sorted into four equal gates, so the index is relative within each strain
Conditions: doa10∆
Observation Type: protein stability index
Give bare numbers.

Worked cases, answers included:
[
  {
    "Item Sequence": "QSRVPTSLTSIKWENAF [PRP8]",
    "Experimental Result": 3.21
  },
  {
    "Item Sequence": "SLKQYAGNLITTPEINN [SRP68]",
    "Experimental Result": 2.69
  },
  {
    "Item Sequence": "DVQLERVADEDANLNDL [IRR1]",
    "Experimental Result": 2.89
  },
  {
    "Item Sequence": "LQEKFLNQIATLKIHLK [IRR1]",
    "Experimental Result": 1.22
  },
  {
    "Item Sequence": "MLNLIDDVKNILNAKYT [RPN6]",
    "Experimental Result": 2.85
  }
]

Provide each entry's protein stability index from the list below.
1. IGQSEELSDKEIYTVED [ISW2]
2. HFVRDLGTIESAQAETE [DIS3]
3. YYEQFRPDLIKEDHPLE [SIR3]
4. AVPRDELGRSNYGMIAI [FAS1]
5. VQQSEKLRNEVERIQKM [YIL149C/MLP2]

Result:
1. 3.35
2. 2.16
3. 2.68
4. 2.97
5. 3.13

* * *

I'd be grateful if you could share measured protein stability index for these entries.
Experiment: protein stability index of a GFP-peptide fusion (yeast GPS) (PSI 1-4); higher = more stable; sorted into four equal gates, so the index is relative within each strain
Conditions: pdr5∆
Answers are plain numbers.

Worked cases, answers included:
[
  {
    "Item Sequence": "EGEAKQKRNAHGYFLQD [ITC1]",
    "protein stability index": 3.4
  },
  {
    "Item Sequence": "QQEAKYRNNEPAGFTHK [YDL088C/ASM4]",
    "protein stability index": 2.98
  },
  {
    "Item Sequence": "EERFSELFKGYLADDID [RPL5]",
    "protein stability index": 3.27
  },
  {
    "Item Sequence": "KKRLMDIDDELNELETL [SMC2]",
    "protein stability index": 3.17
  },
  {
    "Item Sequence": "KNFKGIEEIEYNVKNII [PCI8]",
    "protein stability index": 3.04
  }
]

Provide each entry's protein stability index from the list below.
1. SYTAFSRLTLLLRALKT [PRP8]
2. TSDLVKSLGLKLPLSVI [RPS17A]

Result:
[1.19, 1.52]

Provide each entry's protein stability index from the list below.
1. EKYEDEDEEKILDNTEN [DSN1]
2. SETPLQKTVNLKNIMKV [RPN4]
3. IIGHNPDENKTRVRLPS [RPL2A]
4. LATLLGHNDWVSQVRVV [ASC1]
5. KARNGLDYVRTPAAATS [SNF2]
6. INAQGEEIVVVASADYE [PRP8]

Result:
1. 3.16
2. 2.6
3. 3.09
4. 2.37
5. 2.44
6. 3.33

* * *

I'd be grateful if you could share measured protein stability index for these entries.
Experiment: protein stability index of a GFP-peptide fusion (yeast GPS) (PSI 1-4); higher = more stable; sorted into four equal gates, so the index is relative within each strain
Conditions: ubr1∆
Answers are plain numbers.

Worked cases, answers included:
[
  {
    "Item Sequence": "NLTPANILNMSMNNDFQ [PGD1]",
    "Experimental Result": 2.89
  },
  {
    "Item Sequence": "EKVFTQGLNILEWLENP [FAS1]",
    "Experimental Result": 3.17
  }
]

Provide each entry's protein stability index from the list below.
1. SSTGVPESIDTILSSKL [SRB2]
2. KDKTKNISAEIIRHEKE [SMC4]
3. EDFLDKSYYLNTVMLQG [AAR2]
4. KQKSWVPSYIHVEKERA [YIL149C/MLP2]
5. GEITKTENEKFISYHDK [NUT1]

Result:
1. 3.04
2. 2.91
3. 1.22
4. 2
5. 3.17

* * *

I'd be grateful if you could share measured protein stability index for these entries.
Assay: protein stability index of a GFP-peptide fusion (yeast GPS) (PSI 1-4); higher = more stable; sorted into four equal gates, so the index is relative within each strain
Details: san1∆
Numbers only.

Worked cases, answers included:
[
  {
    "Item Sequence": "PESIRQKKARTILQHLS [PRP8]",
    "protein stability index": 1.12
  },
  {
    "Item Sequence": "PLQNIHVRKVKLLKQPK [RPS1A]",
    "protein stability index": 2.71
  }
]

Provide each entry's protein stability index from the list below.
1. NVFTPEISSQIEILVKD [RRI2]
2. LMLKKLKNSIMSFIFPS [YML031W/NDC1]

Result:
1. 2.65
2. 2.28

* * *

I'd be grateful if you could share measured protein stability index for these entries.
Assay: protein stability index of a GFP-peptide fusion (yeast GPS) (PSI 1-4); higher = more stable; sorted into four equal gates, so the index is relative within each strain
Settings: san1∆

[
  {
    "Item Sequence": "HSLREYINGKATALANL [RPO31]",
    "protein stability index": 2.57
  },
  {
    "Item Sequence": "WLKEYEDETLRRIKEAE [YIL149C/MLP2]",
    "protein stability index": 3.17
  },
  {
    "Item Sequence": "ADVKGVCTEAGMYALRE [RPT6]",
    "protein stability index": 1.97
  },
  {
    "Item Sequence": "IKEKFDEFIKTHEDLPK [IRR1]",
    "protein stability index": 2.62
  },
  {
    "Item Sequence": "IGGLLSKVREEVGDVCI [RPO31]",
    "protein stability index": 2.11
  },
  {
    "Item Sequence": "YEKAQKDLENAQVEMKS [SMC1]",
    "protein stability index": 3.31
  },
  {
    "Item Sequence": "MAQTATQQQPGAPGANA [SRP54]",
    "protein stability index": 3.33
  },
  {
    "Item Sequence": "KNAQYHLLVKQGDGLLT [RPN7]",
    "protein stability index": 1.12
  },
  {
    "Item Sequence": "WQQVTALAQQKLLTPQD [GAL11]",
    "protein stability index": 2.18
  },
  {
    "Item Sequence": "EKAIPKDQRATTPYMTK [RPO26]",
    "protein stability index": 2.97
  }
]

Provide each entry's protein stability index from the list below.
1. EDFLDKSYYLNTVMLQG [AAR2]
2. TPAELVGKFLGYVSSLV [FAS1]

Result:
[2.24, 1.73]

Provide each entry's protein stability index from the list below.
1. DNKINEIKLLEISCKQW [CSI1]
2. LKIIYTGLCSFDYSVIL [YJL039C/NUP192]
3. IELLSDLINILEKKGFS [LIN1]
4. GLELSNFKSYRGVTKVG [SMC1]

Result:
1: 2.17; 2: 1.6; 3: 1.28; 4: 2.55

Provide each entry's protein stability index from the list below.
1. SAFMKFSKAIEWDMLNV [BRR2]
2. NLCKIIEPFECVEISHI [RPN6]

Result:
[1.99, 1.97]

Provide each entry's protein stability index from the list below.
1. ISNGTINIQKKLEPKEI [SIR4]
2. NKTKAVDNTVPSTTLFN [YOR098C/NUP1]
3. MLNLIDDVKNILNAKYT [RPN6]
4. SFLESVIRDSVTYTEHA [HHF1]
5. ETSSDGSKSDGSAATSG [RPN1]

Result:
2.37
3.04
2.86
2.17
3.62

* * *

Experiment: protein stability index of a GFP-peptide fusion (yeast GPS) (PSI 1-4); higher = more stable; sorted into four equal gates, so the index is relative within each strain
Conditions: doa10∆
I'd be grateful if you could share measured protein stability index for these entries.
One number for each entry.

Worked cases, answers included:
[
  {
    "Item Sequence": "LLREKQRVRNMRELGLI [YOR098C/NUP1]",
    "protein stability index": 1.19
  },
  {
    "Item Sequence": "FKSVLPIVLLNTLRKCY [UBP6]",
    "protein stability index": 1.26
  },
  {
    "Item Sequence": "EHGYQSRGFEVMYNGHT [RPB2]",
    "protein stability index": 2.92
  },
  {
    "Item Sequence": "RRYKLLTATPNSINKTT [POP1]",
    "protein stability index": 2
  },
  {
    "Item Sequence": "PKDYIKKLLEVHDIFSK [CDC53]",
    "protein stability index": 1.46
  },
  {
    "Item Sequence": "IDVMKSQIIPLMKKACY [SNU114]",
    "protein stability index": 2.23
  },
  {
    "Item Sequence": "GNKKYRALRIETGNFSW [RPS8A]",
    "protein stability index": 2.87
  },
  {
    "Item Sequence": "KNTEEGKALVHHYEECA [QCR6]",
    "protein stability index": 3.37
  },
  {
    "Item Sequence": "SLLNLLNISPFTFGLTV [RPP0]",
    "protein stability index": 1.79
  },
  {
    "Item Sequence": "VEECPQYIRTLVSEART [SSN8]",
    "protein stability index": 1.67
  }
]

Provide each entry's protein stability index from the list below.
1. EEKQKSYKFPRGTTAVL [PUP1]
2. RAPKANGALDPKMGVSS [RPO31]
3. TAQEINFKMLVLLATWN [IRR1]
4. NWIKPSDSEIPPLLVYK [PRP8]
5. NISTNTNIHEPQYINYS [SSN2]
6. PVYATIGVETGSEPLIQ [PRP28]

Result:
1: 3.37; 2: 3.12; 3: 1.84; 4: 2.16; 5: 3.17; 6: 2.84

Provide each entry's protein stability index from the list below.
1. VEDDLVTVQTELNEEKK [SMC2]
2. GLESQIQEIKESVELPL [RPT2]
3. SSLYEASLNALKESIKN [RPN1]
4. ALFFDPSLNPIPHFIDN [PRP8]
5. TPLTENILIASLMDTLI [YCG1]
6. VFYQVTPEDADEEEDDE [RPL22B]
7. ENEMIKPMNKGQHKNNT [SWP82]

Result:
[3.23, 2.11, 3.26, 2.64, 1.86, 1.84, 3.36]

Provide each entry's protein stability index from the list below.
1. SVRKFLEIALFKYRKAR [RPO31]
2. GRVKYTKRQKHFAWLPT [POP1]
3. RLISQSLLASKSTYRTP [RIP1]

Result:
1: 2.31; 2: 2.27; 3: 2.79
